Origin of the recorded values: paper PMC5115981

# protocol.details: Single dose pharmacokinetics in mice
# Type: in vivo, mouse
# stated.conditions: female, heterozygous Foxn1nu/Foxn1+, mouse, liver, iv, 4 mg/kg
measurement.name: Tmax (min)
Supply the numeric figure in min, leaving out any unit text.

Identify the reported Tmax for the following entry. COc1ccc(C2=Nn3c(nnc3-c3cc(-c4ccc(Cl)cc4)n[nH]3)SC2C)cc1 (stereo not shown)
30

---

# protocol.details: Single dose pharmacokinetics in mice
# Format: in vivo, mouse
# stated.conditions: female, heterozygous Foxn1nu/Foxn1+, mouse, plasma, po, 4 mg/kg
measurement.name: half-life (min)
Supply the numeric figure in min, leaving out any unit text.

Identify the reported half-life for the following entry. COc1ccc(C2=Nn3c(nnc3-c3cc(-c4ccc(Cl)cc4)n[nH]3)SC2C)cc1 (stereo not shown)
48

---

# protocol.details: Single dose pharmacokinetics in mice
# Format: in vivo, mouse
# stated.conditions: female, heterozygous Foxn1nu/Foxn1+, mouse, red blood cells (RBC), iv, 4 mg/kg
measurement.name: AUC(0-t) (ng·h/mL)
Supply the numeric figure in ng·h/mL, leaving out any unit text.

Identify the reported AUC(0-t) for the following entry. COc1ccc(C2=Nn3c(nnc3-c3cc(-c4ccc(Cl)cc4)n[nH]3)SC2C)cc1 (stereo not shown) [UPCDC-10205]
556

---

# protocol.details: Single dose pharmacokinetics in mice
# Assay type: in vivo, mouse
# stated.conditions: female, heterozygous Foxn1nu/Foxn1+, mouse, plasma, iv, 4 mg/kg
measurement.name: Tmax (min)
Supply the numeric figure in min, leaving out any unit text.

Identify the reported Tmax for the following entry. COc1ccc(C2=Nn3c(nnc3-c3cc(-c4ccc(Cl)cc4)n[nH]3)SC2C)cc1 (stereo not shown)
5

---

# protocol.details: Single dose pharmacokinetics in mice
# Assay type: in vivo, mouse
# stated.conditions: female, heterozygous Foxn1nu/Foxn1+, mouse, liver, po, 30 mg/kg, Cmax, mice, PO 30 mg/kg suspension in 1% CMC, liver
measurement.name: Cmax (ng/mL)
Supply the numeric figure in ng/mL, leaving out any unit text.

Identify the reported Cmax for the following entry. COc1ccc(C2=Nn3c(nnc3-c3cc(-c4ccc(Cl)cc4)n[nH]3)SC2C)cc1 (stereo not shown) [UPCDC-10205]
564

---

# protocol.details: Single dose pharmacokinetics in mice
# Assay type: in vivo, mouse
# stated.conditions: female, heterozygous Foxn1nu/Foxn1+, mouse, lung, iv, 4 mg/kg
measurement.name: AUC(0-t) (µg·h/mL)
Supply the numeric figure in µg·h/mL, leaving out any unit text.

Identify the reported AUC(0-t) for the following entry. COc1ccc(C2=Nn3c(nnc3-c3cc(-c4ccc(Cl)cc4)n[nH]3)SC2C)cc1 (stereo not shown)
2.68

---

# protocol.details: Single dose pharmacokinetics in mice
# Format: in vivo, mouse
# stated.conditions: female, heterozygous Foxn1nu/Foxn1+, mouse, kidney, po, 30 mg/kg
measurement.name: Tmax (min)
Supply the numeric figure in min, leaving out any unit text.

Identify the reported Tmax for the following entry. COc1ccc(C2=Nn3c(nnc3-c3cc(-c4ccc(Cl)cc4)n[nH]3)SC2C)cc1 (stereo not shown) [UPCDC-10205]
5

---

# protocol.details: Single dose pharmacokinetics in mice
# Assay type: in vivo, mouse
# stated.conditions: female, heterozygous Foxn1nu/Foxn1+, mouse, brain, po, 4 mg/kg
measurement.name: Tmax (h)
Supply the numeric figure in h, leaving out any unit text.

Identify the reported Tmax for the following entry. COc1ccc(C2=Nn3c(nnc3-c3cc(-c4ccc(Cl)cc4)n[nH]3)SC2C)cc1 (stereo not shown)
1
